Molecular target: pooled human IgG
Can you tell me Enzyme Activity Endpoint Assay (purified): Fab'2 for the items I'm about to list?
Just the number in ng/µL, nothing appended.

-- ask What value of Enzyme Activity Endpoint Assay (purified): Fab'2 has been reported for the following protein? PRT-161 (protein) MANQEIRYSEVTPYHVTIVWTDGVKPPTDFIKGEDVFHAPYKAHQGWYDITKTFNGKDDLLCGAATAGNMLHWWFDQNKDQIKRYLEEHPEKQKINFNGEQMFDVKEAIDTKNHQLDSKLFEYFKEKAFPYLSTKHLGVFPDHVIDMFINGYRLSLTNHGPTPVKEGSKDPRGGIFDAVFTRGDQSKLLTSRHDFKEKNLKEISDLIKKELQEGKALGLSHTYANVRINHVINLWGADFDSNGNLKAIYVTDSDSNASIGMKKYFVGVNSAGKVAISAKEIKEDNIGAQVLGLFTLSTGQDSWNQTN
-- reply 669

-- ask Also check IdeZ (protein) DDYQRNATEAYAKEVPHQITSVWTKGVTPLTPEQFRYNNEDVIHAPYLAHQGWYDITKAFDGKDNLLCGAATAGNMLHWWFDQNKTEIEAYLSKHPEKQKIIFNNQELFDLKAAIDTKDSQTNSQLFNYFRDKAFPNLSARQLGVMPDLVLDMFINGYYLNVFKTQSTDVNRPYQDKDKRGGIFDAVFTRGDQTTLLTARHDLKNKGLNDISTIIKQELTEGRALALSHTYANVSISHVINLWGADFNAEGNLEAIYVTDSDANASIGMKKYFVGINAHGHVAISAKKIEGENIGAQVLGLFTLSSGKDIWQKLS
-- reply 1290

-- ask Also check PRT-135 (protein) MRNATEAYAKEVPHQITSVWTKGVTPLTPEQFRYNNEDVIHAPYLAHQGWYDITKAFDGKDNLLCGAATAGNMLHWWFDQNKTEIEAYLSKHPEKQKIIFNNQELFDLKAAIDTKDSQTNSQLFNYFRDKAFPNLSARQLGVMPDLVLDMFINGYYLNVFKTQSTDVNRPYQDKDKRGGIFDAVFTRGDQTTLLTARHDLKNKGLNDISTIIKQELTEGKALALSHTYANVSISHVINLWGADFNAEGNLEAIYVTDSDANASIGMKKYFVGINAHGHVAISAKKIEGENIGAQVLGLFTLSSGKDIWQKLS
-- reply 526

-- ask Also check PRT-233 (protein) MEVVEVWPYGQNPNGKTEILSQTEDSESLQRLRDIEDFQAEKKMQNVVYTKWLDGVDVKDHDFRKIVDGNIAYYATPLLNGRGFYDINKDFNRDSDKCAAAVAANMFHYWLDRNRDNVDRFLRQNPEKHGIIELPDGQLKLSDFLNTYESDHGYRDKSKLFDFISNNFNGPVWTDKLLDNYINGYAYNYKYGRTIEDPTKNTSKINFFKEVFNEKILTNNHSIRNQNEFSVLLSEALYTGKAIGLSYGPAGLRHSLGHIISVWGADLDADGNVVAIYVTDSDDKKLTIGDERVGLKRYKISTDDENRLRLTAYEETHNTGGQIRGLWTLDTGKYAWADYFDKTEQTGTDQAEQLEHHHHHH
-- reply 94
